Target: PAR4 (Homo sapiens, UniProt Q96RI0, A120T)
Construct: expressed in transfected cells; host or cells: COS-7
Sequence (Q96RI0 18-385 A120T): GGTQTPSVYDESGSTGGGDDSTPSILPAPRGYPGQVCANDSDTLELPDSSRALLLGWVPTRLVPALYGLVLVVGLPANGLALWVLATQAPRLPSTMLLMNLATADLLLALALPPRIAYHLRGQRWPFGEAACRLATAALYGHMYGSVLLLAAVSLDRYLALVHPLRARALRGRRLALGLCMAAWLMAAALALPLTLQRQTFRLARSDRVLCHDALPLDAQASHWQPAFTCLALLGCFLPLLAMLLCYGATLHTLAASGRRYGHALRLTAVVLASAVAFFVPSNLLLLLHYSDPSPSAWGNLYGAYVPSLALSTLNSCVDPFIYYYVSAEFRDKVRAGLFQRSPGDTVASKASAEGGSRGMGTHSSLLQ
Experiment: phosphoinositide hydrolysis assay in COS cells transiently transfected with PAR4 cDNA
Format: cell-based
No end group written: not given here.
ENDPOINT NAME: EC50

Write down EC50 measured for item GYPGQV [GYPGQV] ~100 µM
